- study.system: ASIC3 (Rattus norvegicus)
- test: whole-cell patch clamp, shift of activation pH0.[…]
- Assay type: cell-based
readout.label: EC50 (µM)
Lab book: enter the figure in µM, no units written.

Problem: Param item = CCCCC/C=C\C/C=C\C/C=C\C/C=C\CCCC(=O)NCC(=O)O [AG, arachidonyl glycine] ; retrieve measured EC50.
Result: 5.4

====

- study.system: ASIC3 (Rattus norvegicus, UniProt O35240)
- Sequence (O35240 whole entry): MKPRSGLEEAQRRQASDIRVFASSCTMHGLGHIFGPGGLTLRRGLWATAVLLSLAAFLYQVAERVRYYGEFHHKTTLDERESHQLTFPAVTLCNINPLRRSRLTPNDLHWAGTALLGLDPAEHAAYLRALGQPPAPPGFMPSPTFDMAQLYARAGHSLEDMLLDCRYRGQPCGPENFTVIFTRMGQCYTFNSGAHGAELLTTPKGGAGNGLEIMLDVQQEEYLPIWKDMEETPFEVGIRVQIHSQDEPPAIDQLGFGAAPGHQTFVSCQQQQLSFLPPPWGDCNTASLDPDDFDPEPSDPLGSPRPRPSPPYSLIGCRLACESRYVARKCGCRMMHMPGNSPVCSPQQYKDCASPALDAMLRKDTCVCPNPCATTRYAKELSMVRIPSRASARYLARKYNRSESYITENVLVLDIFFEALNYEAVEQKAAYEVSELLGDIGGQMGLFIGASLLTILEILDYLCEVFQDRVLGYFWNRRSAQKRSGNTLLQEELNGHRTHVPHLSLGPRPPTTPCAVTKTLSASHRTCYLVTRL
- test: whole-cell patch clamp, concentration dependence of shift of activation pH0.[…]
- Format: cell-based
readout.label: EC50 (µM)
Lab book: enter the figure in µM, no units written.

Problem: Could you share what EC50 was measured for CCCCC/C=C\C/C=C\C/C=C\C/C=C\CCCC(=O)O [AA, arachidonic acid] , tested on ASIC3 (Rattus norvegicus, UniProt O35240)?
Result: 11

src = paper PMC9120901
